- Tested on: Saccharomyces cerevisiae
- assay_details: transcriptional activation domain activity (GFP:mCherry ratio, weighted mean of sorted bins, harmonized to initial dataset scale) (arbitrary fluorescence ratio units); higher = stronger transcriptional activation
- details: beta-estradiol 1 µM; induction time 4 h
Consider the following sequences and their measured transcriptional activation domain activity readings.
measured_endpoint: transcriptional activation domain activity

INSERT INTO assay_data (sequence_code, system_under_test, value) VALUES
  ('VGSLVYVTRYSEHLLVSGEFGPELLGAGAYYGGMLWFFFSSQNYRLLFHWQFW', 'Saccharomyces cerevisiae', 49800),
  ('AGGGRKAKATQTGAGASRQKTKTGFQTGRSRRAGNAKTKTNRRAINKPRNGDS', 'Saccharomyces cerevisiae', 28900),
  ('TRPYEMALKFVNVTDTNELLRMRQFACDICDYAPHLLDNDNISLLIVLLILTR', 'Saccharomyces cerevisiae', 45000),
  ('MKKLEKLLLSNDLTSQKKAFLVLCRMHYLTSSLLSSCVVVLVVGWSSIQKNTT', 'Saccharomyces cerevisiae', 63400),
  ('METPEQPSAGRRRPHRKSRTGCAECRRRRIKCDEVKPACTACVRHDHPCVYPS', 'Saccharomyces cerevisiae', 22000),
  ('KPHGKQAAESTRGQSTTGTNSTTSNSSRASGSRRQETDRGKEGKSNKASSSSG', 'Saccharomyces cerevisiae', 21900),
  ('ALVRCCLSKVVYVALEFISICTMPESAKGVINLIDNLSPYARKDLVHLRGWVC', 'Saccharomyces cerevisiae', 51800),
  ('RVSDYSMAQFRFLLKFLLVHGRWNYIRICKYTISTFWKELLFYLTQAMYQRWN', 'Saccharomyces cerevisiae', 28800),
  ('SSSEDDGKAGEGSSSSSDSEKARGRKKAKKSKEKGKGKATEGNSSSSSSDDDS', 'Saccharomyces cerevisiae', 21100),
  ('RVEAQVRDRRVEAQVRDRRAEAQVRARDHRSKVQVRNRQSKAEAEAQVRSQAR', 'Saccharomyces cerevisiae', 33900),
  ('HVYGPTLVVHRYSLPLLFYYFVLFMFLESLPRLFRCISLFFQLAQLLMLLVPI', 'Saccharomyces cerevisiae', 34100),
  ('LHGFDWSEEDDMSDGLPFLKTDPNNNGFFGDGSLLCILRSIGFKPENYTNSNV', 'Saccharomyces cerevisiae', 50300),
  ('WQTALVHKHAQRVIHSTLEVVDQLVPKHYDHQLLRRCWGALNLIMTYVSFMCV', 'Saccharomyces cerevisiae', 41400),
  ('PVVDLNSCFSNGFNNEKQEIEMETDDSPILLMSSSASRENSNTFSVIQRTPDG', 'Saccharomyces cerevisiae', 52900),
  ('DSSSSNDSDSGADDGAARPVRRSRARRKHKHNHEHDGNGGEGDAKDKARKPSP', 'Saccharomyces cerevisiae', 28400),
  ('RRVTSMRLDTEGYVGVLGVEVDFRGRMFDLTADILVRVRYCLQSTILLLEIPL', 'Saccharomyces cerevisiae', 55100),
  ('TRTLFMVPQLCCAFSSMWLYQILVAVSIYLTNHVGIMMVRVWSYCVAVYVLEV', 'Saccharomyces cerevisiae', 69800),
  ('KNDDRGDRGERRSRSRRRRHSVTGVDRESRAESKHRDPKHRKHRIAEAGAASA', 'Saccharomyces cerevisiae', 41500),
  ('KKPAAKKQKTAPAEKINTTDDSKKARGRPKKADSNGTAKAAQKKKEPKAAATA', 'Saccharomyces cerevisiae', 32900),
  ('ILHELTIVVACHRWNHGLFFFFQMMQIPIIMYSDKIPWFRDQHALRNWCFWLA', 'Saccharomyces cerevisiae', 58000),
  ('KPESKEKEEEEEETETETETETKPEAKEEPKEEPKEEVNNEKEAEDAAAAEAK', 'Saccharomyces cerevisiae', 27200),
  ('FIPLQAGIKQLIGRLSLPRHPLSNLNHLIPRHIVFTDCIWLILRQLSTLKHWA', 'Saccharomyces cerevisiae', 57800),
  ('SGGKTMVSGSFAGESGRLQGSGPFGRGGGRESREQAYDNGRAKIARLAHGLRL', 'Saccharomyces cerevisiae', 22400),
  ('DRSRATEEEDGKSTKRSRARSRTFTFSKSDKGGDGSPSKKVRSTSKSRAKHDG', 'Saccharomyces cerevisiae', 31100),
  ('LILNCYWIVLVAFTFNMEVEYCKIVSVVGKLSSKFLGRVQVFLLLFMLMLFLV', 'Saccharomyces cerevisiae', 50600),
  ('AWCHLSVVGRASNLVVYLLIRARKLQLDLGLGFYQRSLLMLCEKLIVVDIFSL', 'Saccharomyces cerevisiae', 63400),
  ('MVLPYVLFNNTRQLLKVWYESLKAIVLLYQKIKIIFRYIFMYTLASLLLLFYF', 'Saccharomyces cerevisiae', 45300),
  ('GANADELGHIIVTRRNRFWKIKGIVGGRILSMPELERWTLFVLLMCFRLHIYP', 'Saccharomyces cerevisiae', 23900),
  ('APDAKTVLPIPELDDAVVESFFSSSTDSTPMFEYENLEDNSKEWTSLFDNDIP', 'Saccharomyces cerevisiae', 137000),
  ('RFISLAFFDVVSCSVWLSIYHLLVLRFFLDLQSCLSFLLLYIRPSFPCLLIPR', 'Saccharomyces cerevisiae', 50500),
  ('ALVLLYIIRFVCTTLAKRFPSKSKLFFFMSTLRTVFVILLYTMISWLVNRHSR', 'Saccharomyces cerevisiae', 44800),
  ('MMHLSIRDEQKVSLCLTIYLFIFFFFFLILFLWLEGVYLFFLLMTFFLRPYSS', 'Saccharomyces cerevisiae', 43800),
  ('SSEEEDEEDEEEEEEEEEEEAPPKKRAKTKGTVLYCYIFSPFFVPATVNPAID', 'Saccharomyces cerevisiae', 56700),
  ('WLAHSKKKTCDVCKHPYSFTKVYATDMPTRLPPVLLLRRVAQQSFFAMLFAVR', 'Saccharomyces cerevisiae', 48100),
  ('SRGICVYPFLPFAFFLGVFFSLMEFVLLGMMMVLYLYMRTVTCMFDISICLLL', 'Saccharomyces cerevisiae', 48500),
  ('ISTAYFSNECGLVDRLITLAFLALKSKTDMSMVAYHSYCAIIEASLHSRGIWN', 'Saccharomyces cerevisiae', 57300),
  ('TSDTGKKRQIKEEAEEESEEEPPTKRQRRKPVEEKETPKKAAAKPKADKVPAK', 'Saccharomyces cerevisiae', 40500),
  ('AGGGNHPPPPPPPPPPAGRSGGAPPPPPPPPPPPPGAGGGNHPPPPPPPPPPP', 'Saccharomyces cerevisiae', 23500),
  ('TSSPSGQNASSTSVALVVGSDEKLVKAVGEGLKSKLGIKGGGKGPRWTGKWTG', 'Saccharomyces cerevisiae', 33700);
